# target-or-system: M. tuberculosis RNA polymerase core enzyme, M. tuberculosis σ^A (Mycobacterium tuberculosis, UniProt P9WGY7+P9WGY9)
# Sequence (P9WGI1 whole entry): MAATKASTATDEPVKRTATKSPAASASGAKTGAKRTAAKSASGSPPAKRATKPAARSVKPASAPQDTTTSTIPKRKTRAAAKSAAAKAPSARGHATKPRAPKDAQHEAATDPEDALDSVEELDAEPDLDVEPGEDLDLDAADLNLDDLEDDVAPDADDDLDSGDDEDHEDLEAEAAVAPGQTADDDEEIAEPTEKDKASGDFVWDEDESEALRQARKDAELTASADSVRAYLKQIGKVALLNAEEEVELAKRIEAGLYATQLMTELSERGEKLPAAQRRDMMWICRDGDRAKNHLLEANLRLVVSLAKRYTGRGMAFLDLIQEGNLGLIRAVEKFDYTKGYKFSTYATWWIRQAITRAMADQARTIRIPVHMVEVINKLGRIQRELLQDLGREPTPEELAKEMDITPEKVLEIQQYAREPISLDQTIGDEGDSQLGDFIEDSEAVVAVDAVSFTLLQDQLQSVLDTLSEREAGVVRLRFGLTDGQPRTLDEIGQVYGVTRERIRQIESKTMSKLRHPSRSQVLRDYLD
# Sequence (P9WGY5 whole entry, further chain): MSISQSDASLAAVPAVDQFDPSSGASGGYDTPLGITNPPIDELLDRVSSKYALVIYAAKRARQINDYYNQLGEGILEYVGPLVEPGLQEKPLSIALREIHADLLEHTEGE
# Sequence (P9WGY7 whole entry): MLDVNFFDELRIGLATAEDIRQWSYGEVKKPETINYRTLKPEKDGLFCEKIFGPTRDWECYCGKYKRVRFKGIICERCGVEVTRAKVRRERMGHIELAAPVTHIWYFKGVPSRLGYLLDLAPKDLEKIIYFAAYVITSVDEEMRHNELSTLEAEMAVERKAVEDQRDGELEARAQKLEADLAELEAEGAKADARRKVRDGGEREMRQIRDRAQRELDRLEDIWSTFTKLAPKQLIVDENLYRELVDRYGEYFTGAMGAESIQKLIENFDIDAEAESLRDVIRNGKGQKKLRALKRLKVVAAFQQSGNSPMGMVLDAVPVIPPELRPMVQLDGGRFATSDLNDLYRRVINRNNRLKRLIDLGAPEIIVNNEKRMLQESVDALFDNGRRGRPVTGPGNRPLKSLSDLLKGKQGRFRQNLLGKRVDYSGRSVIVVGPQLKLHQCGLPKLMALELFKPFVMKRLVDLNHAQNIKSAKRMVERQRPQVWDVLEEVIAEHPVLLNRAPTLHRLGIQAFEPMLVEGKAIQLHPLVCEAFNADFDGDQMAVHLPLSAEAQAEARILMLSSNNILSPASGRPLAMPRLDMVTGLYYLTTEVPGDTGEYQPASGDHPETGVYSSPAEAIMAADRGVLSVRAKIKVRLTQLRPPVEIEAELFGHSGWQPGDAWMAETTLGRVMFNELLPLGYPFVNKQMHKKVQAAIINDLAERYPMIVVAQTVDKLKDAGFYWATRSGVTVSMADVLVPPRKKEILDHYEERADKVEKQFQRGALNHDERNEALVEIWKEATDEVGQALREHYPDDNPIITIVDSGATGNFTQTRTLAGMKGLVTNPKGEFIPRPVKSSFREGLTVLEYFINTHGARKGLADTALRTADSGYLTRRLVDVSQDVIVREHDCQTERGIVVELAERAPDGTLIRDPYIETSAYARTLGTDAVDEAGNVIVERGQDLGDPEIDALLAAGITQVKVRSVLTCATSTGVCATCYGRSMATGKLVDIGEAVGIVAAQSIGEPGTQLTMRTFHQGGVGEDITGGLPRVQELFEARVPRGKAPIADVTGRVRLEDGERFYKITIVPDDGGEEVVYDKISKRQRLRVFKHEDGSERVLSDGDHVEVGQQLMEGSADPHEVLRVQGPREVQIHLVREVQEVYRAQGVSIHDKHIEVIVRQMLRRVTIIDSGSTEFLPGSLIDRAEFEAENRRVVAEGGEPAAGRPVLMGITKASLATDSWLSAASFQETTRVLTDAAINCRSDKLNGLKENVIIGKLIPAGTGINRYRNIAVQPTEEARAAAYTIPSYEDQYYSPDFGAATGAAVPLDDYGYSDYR
# Sequence (P9WGY9 whole entry): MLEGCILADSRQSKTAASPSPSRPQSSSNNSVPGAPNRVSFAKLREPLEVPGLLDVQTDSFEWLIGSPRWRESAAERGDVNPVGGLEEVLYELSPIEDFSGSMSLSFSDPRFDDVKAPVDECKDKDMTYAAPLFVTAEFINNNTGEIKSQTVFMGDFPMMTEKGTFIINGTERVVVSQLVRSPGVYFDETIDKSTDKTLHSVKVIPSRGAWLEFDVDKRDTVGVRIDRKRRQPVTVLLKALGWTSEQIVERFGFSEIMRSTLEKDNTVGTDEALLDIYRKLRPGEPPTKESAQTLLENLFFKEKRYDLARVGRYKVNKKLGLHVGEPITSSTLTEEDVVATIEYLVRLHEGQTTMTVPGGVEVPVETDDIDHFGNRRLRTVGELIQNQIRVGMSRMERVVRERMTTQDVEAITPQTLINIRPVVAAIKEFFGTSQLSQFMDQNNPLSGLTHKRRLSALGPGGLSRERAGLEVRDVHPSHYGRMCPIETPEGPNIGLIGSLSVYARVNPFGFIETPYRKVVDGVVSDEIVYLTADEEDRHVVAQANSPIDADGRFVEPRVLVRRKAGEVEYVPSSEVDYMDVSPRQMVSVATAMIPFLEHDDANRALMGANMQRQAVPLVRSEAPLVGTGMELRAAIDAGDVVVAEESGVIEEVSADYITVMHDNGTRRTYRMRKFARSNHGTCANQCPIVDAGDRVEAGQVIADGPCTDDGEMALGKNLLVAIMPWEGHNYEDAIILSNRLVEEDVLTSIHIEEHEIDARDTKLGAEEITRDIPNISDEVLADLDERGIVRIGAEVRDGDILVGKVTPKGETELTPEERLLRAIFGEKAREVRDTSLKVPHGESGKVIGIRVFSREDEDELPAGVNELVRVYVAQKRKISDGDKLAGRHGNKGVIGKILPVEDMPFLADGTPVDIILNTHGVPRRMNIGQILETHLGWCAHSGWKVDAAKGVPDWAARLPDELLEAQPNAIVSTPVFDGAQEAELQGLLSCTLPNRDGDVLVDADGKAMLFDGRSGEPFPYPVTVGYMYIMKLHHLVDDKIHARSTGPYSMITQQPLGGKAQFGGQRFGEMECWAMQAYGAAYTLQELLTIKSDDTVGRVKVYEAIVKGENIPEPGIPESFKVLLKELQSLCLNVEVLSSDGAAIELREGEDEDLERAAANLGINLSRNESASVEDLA
# Sequence (P9WGZ1 whole entry, further chain): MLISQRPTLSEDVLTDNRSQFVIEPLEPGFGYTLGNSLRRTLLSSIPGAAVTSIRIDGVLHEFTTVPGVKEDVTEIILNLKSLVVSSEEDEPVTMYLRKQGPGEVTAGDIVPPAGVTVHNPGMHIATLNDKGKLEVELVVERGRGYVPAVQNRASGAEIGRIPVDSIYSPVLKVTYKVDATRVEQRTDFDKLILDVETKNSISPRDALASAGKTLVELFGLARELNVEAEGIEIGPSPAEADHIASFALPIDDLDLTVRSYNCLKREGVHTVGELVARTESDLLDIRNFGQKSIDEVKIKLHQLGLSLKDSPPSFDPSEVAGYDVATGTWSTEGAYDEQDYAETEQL
# assay-comment: Fluorescence-detected RNA polymerase assay, M. tuberculosis RNA polymerase
# experimental-context: read-out: IC50 M. tuberculosis RNAP
readout-label: IC50 (nM)
Please give a number only; it is taken to be in nM.

Check out these entries, answers already filled in.
compound="CCCCc1ccc2c(c1)cc(C=C(C)C(=O)c1c(O)cc(C(C)CC/C=C/NC(=O)OC)oc1=O)n2C (mixture of isomers)" value_observed=200
compound="COC(=O)N/C=C/CCC(C)c1cc(O)c(C(=O)C(C)=Cc2ccc(CCC(C)C)s2)c(=O)o1 (mixture of isomers)" value_observed=20
compound="CCCCCCc1ccc(C=C(C)C(=O)c2c(O)cc(C(C)CC/C=C/NC(=O)OC)oc2=O)s1 (mixture of isomers)" value_observed=200
compound="CCCCCCc1ccc2oc(C=C(C)C(=O)c3c(O)cc(C(C)CC/C=C/NC(=O)OC)oc3=O)cc2c1 (mixture of isomers)" value_observed=300
compound="COC(=O)N/C=C/CCC(C)c1cc(O)c(C(=O)C(C)=Cc2ccc(CCCC3CCCCC3)s2)c(=O)o1 (mixture of isomers)" value_observed=2000
compound="COC(=O)N/C=C/CCCc1cc(O)c(C(=O)C(C)=Cc2ccc(CCCC(F)(F)F)s2)c(=O)o1 (mixture of isomers)" value_observed=300
compound="CCCCc1ccc(C=C(C)C(=O)c2c(O)cc(C(C)CC/C=C/NC(=O)OC)oc2=O)c(C)c1 (mixture of isomers)" value_observed=30
compound="COC(=O)N/C=C/CCC(C)c1cc(O)c(C(=O)C(C)=Cc2sc(CCC(C)C)cc2C)c(=O)o1 (mixture of isomers)" value_observed=50
compound="COC(=O)N/C=C/CCC(C)c1cc(O)c(C(=O)C(C)=Cc2ccc(CCC3CC3)s2)c(=O)o1 (mixture of isomers)" value_observed=50
compound="CCOCc1ccc(C=C(C)C(=O)c2c(O)cc(C(C)CC/C=C/NC(=O)OC)oc2=O)s1 (mixture of isomers)" value_observed=700

The compound listed as CCCOCc1ccc(C=C(C)C(=O)c2c(O)cc(C(C)CC/C=C/NC(=O)OC)oc2=O)s1 (mixture of isomers) has a reported IC50 of 800

The compound listed as CCCCc1cc(C)c(C=C(C)C(=O)c2c(O)cc(C(C)CC/C=C/NC(=O)OC)oc2=O)s1 (mixture of isomers) has a reported IC50 of 60

The compound listed as C=CCCc1ccc(C=C(C)C(=O)c2c(O)cc(C(C)CC/C=C/NC(=O)OC)oc2=O)s1 (mixture of isomers) has a reported IC50 of 200

The compound listed as COC(=O)N/C=C/CCC(C)c1cc(O)c(C(=O)C(C)=Cc2ccc(OC(C)C)s2)c(=O)o1 (mixture of isomers) has a reported IC50 of 400

The compound listed as CCCCc1ccc2cc(C=C(C)C(=O)c3c(O)cc(C(C)CC/C=C/NC(=O)OC)oc3=O)oc2c1 (mixture of isomers) has a reported IC50 of 20

The compound listed as CCCC/C(C)=C/C=C(\C)C(=O)c1c(O)cc([C@H](C)CC/C=C/NC(=O)OC)oc1=O [Myx B, myxopyronin B, reference compound] has a reported IC50 of 100

----------
# target-or-system: S. aureus RNA polymerase core enzyme, S. aureus σ^A (Staphylococcus aureus, UniProt P47768+Q2G0N5)
# assay-comment: Fluorescence-detected RNA polymerase assay, S. aureus RNA polymerase
# experimental-context: read-out: IC50 S. aureus RNAP
pIC50: −log10 of the molar value.
Would you please tag the item YES when its pIC50 is 7 or above, and NO when it is below?

Here are 3 compounds together with their reported answers.
compound="CCCCc1ccc2sc(C=C(C)C(=O)c3c(O)cc(C(C)CC/C=C/NC(=O)OC)oc3=O)cc2c1 (mixture of isomers)" class_assignment=NO
compound="COC(=O)N/C=C/CCC(C)c1cc(O)c(C(=O)C(C)=Cc2ccc(CCCC(F)(F)F)s2)c(=O)o1 (mixture of isomers)" class_assignment=YES
compound="COC(=O)N/C=C/CCCc1cc(O)c(C(=O)C(C)=Cc2ccc(CCCC(F)(F)F)s2)c(=O)o1 (mixture of isomers)" class_assignment=NO

Turning now to a further compound:
Exercise: Reported pIC50 reaches at least 7 for CCCCCCc1ccc2oc(C=C(C)C(=O)c3c(O)cc(C(C)CC/C=C/NC(=O)OC)oc3=O)cc2c1 (mixture of isomers) ?
Solution: YES

----------
Below, each of the molecules is paired with its reported MIC value.
# Test system: Staphylococcus aureus ATCC 12600
# assay-comment: MIC, spiral gradient endpoint assay, S. aureus ATCC 12600
# Format: cell-based
# experimental-context: ATCC12600; Staphylococcus aureus ATCC 12600
Please give a number only; it is taken to be in µg/mL.

Check out these entries, answers already filled in.
molecule="C=CCCc1ccc(C=C(C)C(=O)c2c(O)cc(C(C)CC/C=C/NC(=O)OC)oc2=O)s1 (mixture of isomers)" target_or_system="Staphylococcus aureus ATCC 12600" readout_label=MIC u=µg/mL value_observed=2
molecule="COC(=O)N/C=C/CCC(C)c1cc(O)c(C(=O)C(C)=Cc2cc(CCC(F)(F)F)cn2C)c(=O)o1 (mixture of isomers)" target_or_system="Staphylococcus aureus ATCC 12600" readout_label=MIC u=µg/mL value_observed=10
molecule="CCCCc1ncc(C=C(C)C(=O)c2c(O)cc(C(C)CC/C=C/NC(=O)OC)oc2=O)s1 (mixture of isomers)" target_or_system="Staphylococcus aureus ATCC 12600" readout_label=MIC u=µg/mL value_observed=1

Per the reported Staphylococcus aureus ATCC 12600 data, CCc1ccc(C=C(C)C(=O)c2c(O)cc(C(C)CC/C=C/NC(=O)OC)oc2=O)s1 (mixture of isomers) has MIC of 9

Per the reported Staphylococcus aureus ATCC 12600 data, CCCCc1ccc(C=C(CC)C(=O)c2c(O)cc(C(C)CC/C=C/NC(=O)OC)oc2=O)s1 (mixture of isomers) has MIC of 2

Per the reported Staphylococcus aureus ATCC 12600 data, CCc1ccc(C=C(C)C(=O)c2c(O)cc(C(C)CC/C=C/NC(=O)OC)oc2=O)cc1 (mixture of isomers) has MIC of 20

Per the reported Staphylococcus aureus ATCC 12600 data, CCCc1ccc(C=C(C)C(=O)c2c(O)cc(C(C)CC/C=C/NC(=O)OC)oc2=O)s1 (mixture of isomers) has MIC of 1

Per the reported Staphylococcus aureus ATCC 12600 data, COC(=O)N/C=C/CCC(C)c1cc(O)c(C(=O)C(C)=Cc2sc(CC(C)C)cc2Br)c(=O)o1 (mixture of isomers) has MIC of 0.9

Per the reported Staphylococcus aureus ATCC 12600 data, COC(=O)N/C=C/CCC(C)c1cc(O)c(C(=O)C(C)=Cc2cc(Br)c(CC(C)C)s2)c(=O)o1 (mixture of isomers) has MIC of 1

Per the reported Staphylococcus aureus ATCC 12600 data, COC(=O)N/C=C/CCC(C)c1cc(O)c(C(=O)C(C)=Cc2cnc(N3CCCCC3)s2)c(=O)o1 (centres unmarked) has MIC of 20

Per the reported Staphylococcus aureus ATCC 12600 data, COC(=O)N/C=C/CCC(C)c1cc(O)c(C(=O)C(C)=Cc2ccc(CCCC(F)(F)F)s2)c(=O)o1 (mixture of isomers) has MIC of 0.4

----------
# target-or-system: S. aureus RNA polymerase core enzyme, S. aureus σ^A (Staphylococcus aureus, UniProt P47768+Q2G0N5)
# assay-comment: Fluorescence-detected RNA polymerase assay, S. aureus RNA polymerase
# experimental-context: read-out: IC50 S. aureus RNAP
Below, each of the compounds is paired with its reported IC50 value.
Please give a number only; it is taken to be in µM.

compound="CCCCCCc1ccc(C=C(C)C(=O)c2c(O)cc(C(C)CC/C=C/NC(=O)OC)oc2=O)s1 (mixture of isomers) [APY15]" value_observed=0.02

# input for lookup
The compound listed as CCCC/C(C)=C/C=C(\C)C(=O)c1c(O)cc([C@H](C)CC/C=C/NC(=O)OC)oc1=O [Myx B, myxopyronin B, reference compound] has a reported IC50 of 0.07

----------
Recorded below: MIC, system Staphylococcus aureus ATCC 12600.
Please give a number only; it is taken to be in µg/mL.

Check out these entries, answers already filled in.
compound="CCCOCc1ccc(C=C(C)C(=O)c2c(O)cc(C(C)CC/C=C/NC(=O)OC)oc2=O)s1 (mixture of isomers)" value_observed=3
compound="CCCCc1ccc2cc(C=C(C)C(=O)c3c(O)cc(C(C)CC/C=C/NC(=O)OC)oc3=O)oc2c1 (mixture of isomers)" value_observed=3
compound="CCCCCCc1ccc(C=C(C)C(=O)c2c(O)cc(C(C)CC/C=C/NC(=O)OC)oc2=O)cc1 (mixture of isomers)" value_observed=2

The compound listed as CCCOc1ccc(C=C(C)C(=O)c2c(O)cc(C(C)CC/C=C/NC(=O)OC)oc2=O)c(C)c1 (mixture of isomers) has a reported MIC of 4
